IL-8 [abs. corr.] for assorted binders
Biological target: T1, CD27 expressed on the cell surface (HT1080_CD27 cells) (human, UniProt P26842 20-260); further: test concentration or dose not given here
T1 sequence (looked up): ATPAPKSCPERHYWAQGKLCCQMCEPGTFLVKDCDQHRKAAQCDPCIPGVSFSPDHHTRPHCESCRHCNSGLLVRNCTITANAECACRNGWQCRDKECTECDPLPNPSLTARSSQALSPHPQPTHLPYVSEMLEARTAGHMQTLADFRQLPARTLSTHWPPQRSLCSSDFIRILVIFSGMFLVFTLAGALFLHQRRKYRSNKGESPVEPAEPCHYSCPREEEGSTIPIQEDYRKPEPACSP
Assay: cell-based or functional assay

# binder, IL-8 [abs. corr.], abs. corr.
data = [
    ("P018.S.01.A.D04 (antibody, V domains shown, V regions on human Ig constant parts; also called AB27_12) VH: QEQLEESGGRLVTPGGTLTLTCTASGFSLSNYDMSWVRQAPGKGLEWIGYIWSDGNTDYASWAAGRFTASRASTTVDLKMTSLTTEDTATYFCARGYTGFFLWGPGTLVTVSS VL: DVVMTQTPSSVSTAVGDTVTIKCQASQSIGSSYLSWYQQKPGQPPKLLIYKTSTLASGVPSRFKGSGSGTEFTLTISDLESDDAATYYCQCTYYGGSWRVAFGGGTEVVVK", 0.175),
    ("P018.S.03.A.G02 (antibody, V domains shown, V regions on human Ig constant parts; also called AB27_56) VH: QSLEESGGDLVKPGASLTLTCTASGFSFSSGYDMCWVRQAPGKGLEWIACIYAGSNNNTYYASWAKGRFTISKTSSTTVTLQVASLTAADTATYFCARAAGGYADYAYVMGDYFNFWGPGTLVTVSS VL: AYDMTQTPASVEVAVGGTVTIKCQASEDIYSILAWYQQKPGQRPKGLIYSASTLDSGVPLRFSGSGSGTEFTLTISGVQSDDAATYYCQQGYSSSNVDNVFGGGTEVVVK", 0.412),
    ("P018.S.02.A.D04 (antibody, V domains shown, V regions on human Ig constant parts; also called AB27_33) VH: QEQLVESGGGLVQPEGSLTLTCTASALSFYSAWICWVRQAPGKGLKWIACIYAGGSRSTYYATWATGRFTISEASSTTVTLQMTSLTAADTATYFCARSLSADTYWNLWGPGTLVTVSS VL: DVVMTQTPASVEAAVGGTVTIKCQASESISSWLAWYQQKPGQPPKLLIYRASTLESGVPSRFKGSGSGTEFTLTISDLESADAATYYCQNNGGGTSGYTFGGGTEVVVK", 0.569),
]
